# Test system: Fusarium oxysporum
# assay: Antimicrobial activity against Fusarium oxysporum at 30 uM after 48 hrs by microtiter assay
# Format: functional
measure: inhibition at 30 µM (%)
Write the number in % without appending the unit.

Exercise: Look up inhibition at 30 µM with Fusarium oxysporum for this molecule: CO/C=C(/C(=O)OC)c1ccccc1Oc1cc(Oc2ccccc2C#N)ncn1 [AZOXYSTROBIN]
Key: 77.2

Exercise: Same question, C/C=C1\NC(=O)[C@H](Cc2ccccc2)NC(=O)[C@@H](C(C)C)NC(=O)[C@@H]([C@@H](C)CC)NC(=O)[C@H](NC(=O)[C@H](NC(=O)[C@H](CCCNCCCCCC)NC(=O)[C@H]2CCCN2C(=O)[C@H](NC(=O)[C@@H](NC(=O)[C@@H](NC(=O)[C@H](NC(=O)CCCC(C)C)C(C)C)[C@@H](C)O)C(C)C)C(C)C)[C@@H](C)CC)[C@@H](C)OC(=O)[C@H](C(C)C)NC1=O this time
Key: 93.6

Exercise: Try C[C@@H]1[C@H](O)[C@@H](C)/C=C/C=C/C=C/C=C/C=C/C=C/C=C/[C@H](O[C@@H]2O[C@H](C)[C@@H](O)[C@H](N)[C@@H]2O)C[C@@H]2O[C@](O)(C[C@@H](O)C[C@@H](O)[C@H](O)CC[C@@H](O)C[C@@H](O)CC(=O)O[C@H]1C)C[C@H](O)[C@H]2C(=O)O [AMPHOTERICIN B] next.
Key: 99.7

###

# Tested on: Fusarium proliferatum
# assay: Antimicrobial activity against Fusarium proliferatum at 3 uM after 48 hrs by microtiter assay
# Type: functional
measure: inhibition at 3 µM (%)
# unit: % | format: bare number

Exercise: Fusarium proliferatum / inhibition at 3 µM / O=C1C2CC=CCC2C(=O)N1SC(Cl)(Cl)Cl (centres undefined) [CAPTAN] : value?
Key: 12

Exercise: Same for C/C=C1\NC(=O)[C@H](Cc2ccccc2)NC(=O)[C@@H](C(C)C)NC(=O)[C@@H]([C@@H](C)CC)NC(=O)[C@H](NC(=O)[C@H](NC(=O)[C@H](CCCNCc2cccs2)NC(=O)[C@H]2CCCN2C(=O)[C@H](NC(=O)[C@@H](NC(=O)[C@@H](NC(=O)[C@H](NC(=O)CCCC(C)C)C(C)C)[C@@H](C)O)C(C)C)C(C)C)[C@@H](C)CC)[C@@H](C)OC(=O)[C@H](C(C)C)NC1=O
Key: 4.8

Exercise: Also need C/C=C1\NC(=O)[C@H](Cc2ccccc2)NC(=O)[C@@H](C(C)C)NC(=O)[C@@H]([C@@H](C)CC)NC(=O)[C@H](NC(=O)[C@H](NC(=O)[C@H](CCCNCc2ccc(F)cc2)NC(=O)[C@H]2CCCN2C(=O)[C@H](NC(=O)[C@@H](NC(=O)[C@@H](NC(=O)[C@H](NC(=O)CCCC(C)C)C(C)C)[C@@H](C)O)C(C)C)C(C)C)[C@@H](C)CC)[C@@H](C)OC(=O)[C@H](C(C)C)NC1=O , thanks.
Key: 0

Exercise: // repeat for C/C=C1\NC(=O)[C@H](Cc2ccccc2)NC(=O)[C@@H](C(C)C)NC(=O)[C@@H]([C@@H](C)CC)NC(=O)[C@H](NC(=O)[C@H](NC(=O)[C@H](CCCN)NC(=O)[C@H]2CCCN2C(=O)[C@@H](NC(=O)[C@H](NC(=O)[C@H](NC(=O)[C@@H](NC(=O)CCCC(C)C)C(C)C)[C@H](C)OC(C)=O)C(C)C)C(C)C)[C@@H](C)CC)[C@@H](C)OC(=O)[C@H](C(C)C)NC1=O and report
Key: 0

###

Provide the recorded inhibition at 3 µM for the entries that follow.
# Test system: Fusarium proliferatum
# assay: Antimicrobial activity against Fusarium proliferatum at 3 uM after 48 hrs by microtiter assay
# Type: functional

Exercise: Could you share which inhibition at 3 µM value was measured for C/C=C1\NC(=O)[C@H](Cc2ccccc2)NC(=O)[C@@H](C(C)C)NC(=O)[C@@H]([C@@H](C)CC)NC(=O)[C@H](NC(=O)[C@H](NC(=O)[C@H](CCCN)NC(=O)[C@H]2CCCN2C(=O)[C@H](NC(=O)[C@@H](NC(=O)[C@@H](NC(=O)[C@H](NC(=O)CCCC(C)C)C(C)C)C(C)=O)C(C)C)C(C)C)[C@@H](C)CC)[C@@H](C)OC(=O)[C@H](C(C)C)NC1=O ?
Key: 5%

Exercise: And then C/C=C1\NC(=O)[C@H](Cc2ccccc2)NC(=O)[C@@H](C(C)C)NC(=O)[C@@H]([C@@H](C)CC)NC(=O)[C@H](NC(=O)[C@H](NC(=O)[C@H](CCCNCCCCCC)NC(=O)[C@H]2CCCN2C(=O)[C@H](NC(=O)[C@@H](NC(=O)[C@@H](NC(=O)[C@H](NC(=O)CCCC(C)C)C(C)C)[C@@H](C)O)C(C)C)C(C)C)[C@@H](C)CC)[C@@H](C)OC(=O)[C@H](C(C)C)NC1=O , what is it?
Key: 0%

Exercise: Also C/C=C1\NC(=O)[C@H](Cc2ccccc2)NC(=O)[C@@H](C(C)C)NC(=O)[C@@H]([C@@H](C)CC)NC(=O)[C@H](NC(=O)[C@H](NC(=O)[C@H](CCCNCc2ccncc2)NC(=O)[C@H]2CCCN2C(=O)[C@H](NC(=O)[C@@H](NC(=O)[C@@H](NC(=O)[C@H](NC(=O)CCCC(C)C)C(C)C)[C@@H](C)O)C(C)C)C(C)C)[C@@H](C)CC)[C@@H](C)OC(=O)[C@H](C(C)C)NC1=O ?
Key: 0%

Exercise: Note, next up: CO/C=C(/C(=O)OC)c1ccccc1Oc1cc(Oc2ccccc2C#N)ncn1 [AZOXYSTROBIN]
Key: 21.7%

Exercise: What about this molecule? C/C=C1\NC(=O)[C@H](Cc2ccccc2)NC(=O)[C@@H](C(C)C)NC(=O)[C@@H]([C@H](C)CC)NC(=O)[C@H](NC(=O)[C@H](NC(=O)[C@H](CCCN)NC(=O)[C@H]2CCCN2C(=O)[C@H](NC(=O)[C@@H](NC(=O)[C@@H](NC(=O)[C@H](NC(=O)CCCC(C)C)C(C)C)[C@@H](C)O)C(C)C)C(C)C)[C@H](C)CC)[C@H](C)OC(=O)[C@H](C(C)C)NC1=O [KAHALALIDE F]
Key: 0%

Exercise: Try C/C=C1\NC(=O)[C@H](Cc2ccccc2)NC(=O)[C@@H](C(C)C)NC(=O)[C@@H]([C@@H](C)CC)NC(=O)[C@H](NC(=O)[C@H](NC(=O)[C@H](CCCNC(=O)c2cc3ccc(N(CC)CC)cc3oc2=O)NC(=O)[C@H]2CCCN2C(=O)[C@H](NC(=O)[C@@H](NC(=O)[C@@H](NC(=O)[C@H](NC(=O)CCCC(C)C)C(C)C)[C@@H](C)O)C(C)C)C(C)C)[C@@H](C)CC)[C@@H](C)OC(=O)[C@H](C(C)C)NC1=O next.
Key: 0%

Exercise: Same lookup for C[C@@H]1[C@H](O)[C@@H](C)/C=C/C=C/C=C/C=C/C=C/C=C/C=C/[C@H](O[C@@H]2O[C@H](C)[C@@H](O)[C@H](N)[C@@H]2O)C[C@@H]2O[C@](O)(C[C@@H](O)C[C@@H](O)[C@H](O)CC[C@@H](O)C[C@@H](O)CC(=O)O[C@H]1C)C[C@H](O)[C@H]2C(=O)O [AMPHOTERICIN B] , please.
Key: 7.9%

###

Give GI50 for every item shown.
# Tested on: HCC 2998
# assay: Cytotoxicity against human HCC2998 cells
# Type: functional

Exercise: HCC 2998 / GI50 / C/C=C1\NC(=O)[C@H](Cc2ccccc2)NC(=O)[C@@H](C(C)C)NC(=O)[C@@H]([C@@H](C)CC)NC(=O)[C@H](NC(=O)[C@H](NC(=O)[C@H](CCCNCc2cccs2)NC(=O)[C@H]2CCCN2C(=O)[C@H](NC(=O)[C@@H](NC(=O)[C@@H](NC(=O)[C@H](NC(=O)CCCC(C)C)C(C)C)[C@@H](C)O)C(C)C)C(C)C)[C@@H](C)CC)[C@@H](C)OC(=O)[C@H](C(C)C)NC1=O : value?
Key: 255 nM

Exercise: Subsequent entry: C/C=C1\NC(=O)[C@H](Cc2ccccc2)NC(=O)[C@@H](C(C)C)NC(=O)[C@@H]([C@@H](C)CC)NC(=O)[C@H](NC(=O)[C@H](NC(=O)[C@H](CCCNCc2ccc(F)cc2)NC(=O)[C@H]2CCCN2C(=O)[C@H](NC(=O)[C@@H](NC(=O)[C@@H](NC(=O)[C@H](NC(=O)CCCC(C)C)C(C)C)[C@@H](C)O)C(C)C)C(C)C)[C@@H](C)CC)[C@@H](C)OC(=O)[C@H](C(C)C)NC1=O
Key: 201 nM

Exercise: Item: C/C=C1\NC(=O)[C@H](Cc2ccccc2)NC(=O)[C@@H](C(C)C)NC(=O)[C@@H]([C@@H](C)CC)NC(=O)[C@H](NC(=O)[C@H](NC(=O)[C@H](CCCNCc2ccncc2)NC(=O)[C@H]2CCCN2C(=O)[C@H](NC(=O)[C@@H](NC(=O)[C@@H](NC(=O)[C@H](NC(=O)CCCC(C)C)C(C)C)[C@@H](C)O)C(C)C)C(C)C)[C@@H](C)CC)[C@@H](C)OC(=O)[C@H](C(C)C)NC1=O
Key: 236 nM

Source: ChEMBL document CHEMBL1148762
